- Test system: HSC2
- run-description: relative IC50 (inflection point of fitted dose-response curve, CellTiter-Glo viability, 72 h; top asymptote may be below 50% inhibition); higher = less potent
Would you kindly list relative IC50 for each of these molecules?
Supply the numeric figure in µM, leaving out any unit text.

## Task Which measured relative IC50 value corresponds to COc1cc2c(cc1O)CC[C@@H]1[C@@H]2CC[C@]2(C)[C@@H](O)CC[C@@H]12 [2-methoxyestradiol] ?
## Result 1.23

## Task Which measured relative IC50 value corresponds to C#Cc1cccc(Nc2ncnc3cc(OCCOC)c(OCCOC)cc23)c1 [Erlotinib] ?
## Result 2.31

## Task Which measured relative IC50 value corresponds to O=C1CN2Cc3c(ccc(Cl)c3Cl)N=C2N1 [Anagrelide] ?
## Result 0.134

## Task Which measured relative IC50 value corresponds to O=C(/C=C/c1cccnc1)NCCCCC1CCN(C(=O)c2ccccc2)CC1 [Daporinad] ?
## Result 0.00805

## Task Which measured relative IC50 value corresponds to Oc1nc(-c2ccc(C(F)(F)F)cc2)nc2c1CSCC2 [XAV-939] ?
## Result 0.314

## Task Which measured relative IC50 value corresponds to Nc1ccccc1NC(=O)c1ccc(CNC(=O)OCc2cccnc2)cc1 [Entinostat] ?
## Result 2.56

###

Would you kindly list relative IC50 for each of these compounds?
- System: S1507-2
- run-description: relative IC50 (inflection point of fitted dose-response curve, CellTiter-Glo viability, 72 h; top asymptote may be below 50% inhibition); higher = less potent
Supply the numeric figure in nM, leaving out any unit text.

## Task Which measured relative IC50 value corresponds to CC(=O)O[C@H]1C(=O)[C@@]2(C)[C@H]([C@H](OC(=O)c3ccccc3)[C@]3(O)C[C@H](OC(=O)[C@H](O)[C@@H](NC(=O)c4ccccc4)c4ccccc4)C(C)=C1C3(C)C)[C@]1(OC(C)=O)CO[C@@H]1C[C@@H]2O ?
## Result 18.5

## Task Which measured relative IC50 value corresponds to N#CCNC(=O)c1ccc(-c2ccnc(Nc3ccc(N4CCOCC4)cc3)n2)cc1 ?
## Result 3760

## Task Which measured relative IC50 value corresponds to Cn1cc(CNCC2CCN(c3ncc(C(=O)NO)cn3)CC2)c2ccccc21 ?
## Result 18.3

## Task Which measured relative IC50 value corresponds to CCN(CC)CCOc1ccc(/C(=C(/Cl)c2ccccc2)c2ccccc2)cc1 ?
## Result 2470

## Task Which measured relative IC50 value corresponds to CCCCC(=O)OCC(=O)[C@]1(O)Cc2c(O)c3c(c(O)c2[C@@H](O[C@H]2C[C@H](NC(=O)C(F)(F)F)[C@H](O)[C@H](C)O2)C1)C(=O)c1c(OC)cccc1C3=O ?
## Result 534

###

Would you kindly list relative IC50 for each of these molecules?
- Tested on: STS26T
- run-description: relative IC50 (inflection point of fitted dose-response curve, CellTiter-Glo viability, 72 h; top asymptote may be below 50% inhibition); higher = less potent
Supply the numeric figure in nM, leaving out any unit text.

## Task Which measured relative IC50 value corresponds to Nc1ccccc1NC(=O)c1ccc(CNC(=O)OCc2cccnc2)cc1 ?
## Result 2740

## Task Which measured relative IC50 value corresponds to CCN(CC)CCCC(C)Nc1ccnc2cc(Cl)ccc12 (centres undefined) ?
## Result 5430

## Task Which measured relative IC50 value corresponds to Nc1nc(Cl)nc2c1ncn2[C@H]1C[C@H](O)[C@@H](CO)O1 ?
## Result 226

## Task Which measured relative IC50 value corresponds to CO[C@H]1C[C@@H]2CC[C@@H](C)[C@@](O)(O2)C(=O)C(=O)N2CCCC[C@H]2C(=O)O[C@H]([C@H](C)C[C@@H]2CC[C@@H](O)[C@H](OC)C2)CC(=O)[C@H](C)/C=C(\C)[C@@H](O)[C@@H](OC)C(=O)[C@H](C)C[C@H](C)/C=C/C=C/C=C/1C ?
## Result 21.7

## Task Which measured relative IC50 value corresponds to Cc1c(CN2CCN(C(=O)[C@H](C)O)CC2)sc2c(N3CCOCC3)nc(-c3cnc(N)nc3)nc12 ?
## Result 486

## Task Which measured relative IC50 value corresponds to CC[C@@H]1C(=O)N(C)c2cnc(Nc3ccc(C(=O)NC4CCN(C)CC4)cc3OC)nc2N1C1CCCC1 ?
## Result 3.49

## Task Which measured relative IC50 value corresponds to C/C(=C\c1csc(C)n1)[C@@H]1C[C@@H]2O[C@]2(C)CCC[C@H](C)[C@H](O)[C@@H](C)C(=O)C(C)(C)[C@@H](O)CC(=O)N1 [Ixabepilone] ?
## Result 350

## Task Which measured relative IC50 value corresponds to CO[C@H]1[C@@H](N(C)C(=O)c2ccccc2)C[C@@H]2O[C@@]1(C)n1c3ccccc3c3c4c(c5c6ccccc6n2c5c31)C(=O)NC4 ?
## Result 436

## Task Which measured relative IC50 value corresponds to CC(C)(C)c1nc(-c2cccc(NS(=O)(=O)c3c(F)cccc3F)c2F)c(-c2ccnc(N)n2)s1 ?
## Result 72.8

## Task Which measured relative IC50 value corresponds to COc1ccc(-c2cc3c(C)nc(N)nc3n([C@H]3CC[C@H](OCCO)CC3)c2=O)cn1 ?
## Result 124

## Task Which measured relative IC50 value corresponds to Cn1cc(CNCC2CCN(c3ncc(C(=O)NO)cn3)CC2)c2ccccc21 ?
## Result 43.4

## Task Which measured relative IC50 value corresponds to CO[C@H]1C[C@@H]2CC[C@@H](C)[C@@](O)(O2)C(=O)C(=O)N2CCCC[C@H]2C(=O)O[C@H]([C@H](C)C[C@@H]2CC[C@@H](OP(C)(C)=O)[C@H](OC)C2)CC(=O)[C@H](C)/C=C(\C)[C@@H](O)[C@@H](OC)C(=O)[C@H](C)C[C@H](C)/C=C/C=C/C=C/1C ?
## Result 0.663

## Task Which measured relative IC50 value corresponds to NS(=O)(=O)OC[C@@H]1C[C@@H](n2ccc3c(N[C@H]4CCc5ccccc54)ncnc32)C[C@@H]1O ?
## Result 520

## Task Which measured relative IC50 value corresponds to CCCCC(=O)OCC(=O)[C@]1(O)Cc2c(O)c3c(c(O)c2[C@@H](O[C@H]2C[C@H](NC(=O)C(F)(F)F)[C@H](O)[C@H](C)O2)C1)C(=O)c1c(OC)cccc1C3=O ?
## Result 306

## Task Which measured relative IC50 value corresponds to CCCc1cc(C)[nH]c(=O)c1CNC(=O)c1cc(-c2ccnc(N3CCN(C)CC3)c2)cc2c1cnn2C(C)C ?
## Result 3820

## Task Which measured relative IC50 value corresponds to CN1CCc2c(c3ccccc3n2Cc2ccc(C(=O)NO)cc2)C1 ?
## Result 2840

## Task Which measured relative IC50 value corresponds to CC[C@]1(O)C[C@H]2CN(CCc3c([nH]c4ccccc34)[C@@](C(=O)OC)(c3cc4c(cc3OC)N(C=O)[C@H]3[C@@](O)(C(=O)OC)[C@H](OC(C)=O)[C@]5(CC)C=CCN6CC[C@]43[C@@H]65)C2)C1 ?
## Result 1.76

## Task Which measured relative IC50 value corresponds to COc1cc2c(cc1O)CC[C@@H]1[C@@H]2CC[C@]2(C)[C@@H](O)CC[C@@H]12 ?
## Result 922

## Task Which measured relative IC50 value corresponds to CC(C)(C)Cn1c(N)nc2ccc(-c3[nH]c(C(C)(C)C)nc3-c3ccc(F)cc3)nc21 ?
## Result 2920

## Task Which measured relative IC50 value corresponds to Cc1nc(Nc2ncc(C(=O)Nc3c(C)cccc3Cl)s2)cc(N2CCN(CCO)CC2)n1 ?
## Result 25.8

## Task Which measured relative IC50 value corresponds to CN(C)CCN1C(=O)c2cccc3cc(N)cc(c23)C1=O [Amonafide] ?
## Result 2240

## Task Which measured relative IC50 value corresponds to O=C(NC[C@H](O)CO)c1ccncc1Nc1ccc(I)cc1F ?
## Result 241
